tested on: HIV-2 (ROD); assay: Anti-HIV replication assay, HIV-2 (ROD) in wild-type CEM/0 cells; assay type: cell-based; conditions: Human immunodeficiency virus 2, CCRF-CEM, read-out: HIV-2 (ROD) EC50
Below, each entry is listed alongside its reported EC50.
READOUT_NAME: EC50 (µM)

COMPOUND: Cc1cn([C@H]2C=C[C@@H](CO)O2)c(=O)[nH]c1=O [d4T, 3′-deoxy-2′,3′-didehydrothymidine, reference compound]
READOUT_NAME: EC50
DISPLAY_UNIT: µM
OBSERVED_MEASUREMENT: 0.97

COMPOUND: CCCCCCCCCCCCCCCCCCP(=O)(OCCCC)OP(=O)(O)OP(=O)(O)OP(=O)(O)OC[C@@H]1C=C[C@H](n2cc(C)c(=O)[nH]c2=O)O1 (stereo partly drawn) [5a, δ-(Alkyl-C4)-δ-C-(alkyl-C18)-d4T4P]
READOUT_NAME: EC50
DISPLAY_UNIT: µM
OBSERVED_MEASUREMENT: 0.33

COMPOUND: CCCCOP(=O)(OCCCC)OP(=O)(O)OP(=O)(O)OP(=O)(O)OC[C@@H]1C=C[C@H](n2cc(C)c(=O)[nH]c2=O)O1 [4a, δ-(Alkyl-C4; alkyl-C4)-d4T4P]
READOUT_NAME: EC50
DISPLAY_UNIT: µM
OBSERVED_MEASUREMENT: 0.16

====

compounds and their reported half-life at 1.9 mM
assay: Chemical hydrolysis in aqueous buffers (PBS pH 7.3 / 8.0, citrate buffer pH 2.0), RP18-HPLC; type: physicochemical; conditions: phosphate buffered saline; 25 mM PBS, pH 7.3, 37 °C; read-out: PBS pH 7.3 t1/2 (converted)

COMPOUND: CCCCCCCCCCCCCCCCCCP(=O)(OCc1ccc(OC(=O)CCCC)cc1)OP(=O)(O)OP(=O)(O)OP(=O)(O)OC[C@@H]1C=C[C@H](n2cc(C)c(=O)[nH]c2=O)O1 (stereo partly drawn) [compound 7, δ-(AB-C4)-δ-C-(alkyl-C18)-d4T4P]
READOUT_RELATION: >
half-life at 1.9 mM / h: 600

COMPOUND: CCCCCCCCCCCCCCCCCCOP(=O)(OCc1ccc(OC(=O)CCCC)cc1)OP(=O)(O)OP(=O)(O)OP(=O)(O)OC[C@@H]1C=C[C@H](n2cc(C)c(=O)[nH]c2=O)O1 (stereo partly drawn) [compound 6, δ-(AB-C4; alkyl-C18)-d4T4P]
READOUT_RELATION: =
half-life at 1.9 mM / h: 77

COMPOUND: CCCCCCCCCCCCOP(=O)(OCCCCCCCCCCCC)OP(=O)(O)OP(=O)(O)OP(=O)(O)OC[C@@H]1C=C[C@H](n2cc(C)c(=O)[nH]c2=O)O1 [4b, δ-(Alkyl-C12; alkyl-C12)-d4T4P]
READOUT_RELATION: =
half-life at 1.9 mM / h: 215

====

test system: HIV-2 (ROD); experiment: Anti-HIV replication assay, HIV-2 (ROD) in wild-type CEM/0 cells; format: cell-based; conditions: CC50/EC50, HIV-2 (ROD) in CEM cells
The molecules listed here are annotated with their selectivity index (SI).

MOLECULE: CCCCCCCCCCCCCCCCCCOP(=O)(OCCCCCCCCCCCCCCCCCC)OP(=O)(O)OP(=O)(O)OP(=O)(O)OC[C@@H]1C=C[C@H](n2cc(C)c(=O)[nH]c2=O)O1
READOUT_RELATION: =
selectivity index (SI): 24
--
MOLECULE: CCCCCCCCCCCCCCCCCCOP(=O)(O)OP(=O)(O)OP(=O)(O)OP(=O)(O)OC[C@@H]1C=C[C@H](n2cc(C)c(=O)[nH]c2=O)O1
READOUT_RELATION: >
selectivity index (SI): 200
--
MOLECULE: CCCCCCCCCCCCCCCCCCOP(=O)(OCC(CC)CCCC)OP(=O)(O)OP(=O)(O)OP(=O)(O)OC[C@@H]1C=C[C@H](n2cc(C)c(=O)[nH]c2=O)O1 (some centres unmarked)
READOUT_RELATION: =
selectivity index (SI): 139
--
MOLECULE: CCCCCCCCCCCCCCCCOC(=O)Oc1ccc(COP(=O)(OCc2ccc(OC(=O)CCCC)cc2)OP(=O)(O)OP(=O)(O)OP(=O)(O)OC[C@@H]2C=C[C@H](n3cc(C)c(=O)[nH]c3=O)O2)cc1 (some centres unmarked)
READOUT_RELATION: =
selectivity index (SI): 365
--
MOLECULE: CCCCCCCCCC(=O)Oc1ccc(COP(=O)(OCc2ccc(OC(=O)CCCCCCCCC)cc2)OP(=O)(O)OP(=O)(O)OP(=O)(O)OC[C@@H]2C=C[C@H](n3cc(C)c(=O)[nH]c3=O)O2)cc1
READOUT_RELATION: =
selectivity index (SI): 173
--
MOLECULE: CCCCCCCCCC(=O)Oc1ccc(COP(=O)(OCc2ccc(OC(=O)CCCCCCCCC)cc2)OP(=O)(O)OP(=O)(O)OC[C@@H]2C=C[C@H](n3cc(C)c(=O)[nH]c3=O)O2)cc1 [1a, γ-(AB-C9; AB-C9)-d4TTP, reference compound]
READOUT_RELATION: =
selectivity index (SI): 1109
--
MOLECULE: CCCCCCCCCCCCCCCCCCP(=O)(OCc1ccc(OC(=O)CCCC)cc1)OP(=O)(O)OP(=O)(O)OP(=O)(O)OC[C@@H]1C=C[C@H](n2cc(C)c(=O)[nH]c2=O)O1 (some centres unmarked)
READOUT_RELATION: =
selectivity index (SI): 4330
--
MOLECULE: CCCCCCCCCCCCCCCCCCP(=O)(OCC(CC)CCCC)OP(=O)(O)OP(=O)(O)OP(=O)(O)OC[C@@H]1C=C[C@H](n2cc(C)c(=O)[nH]c2=O)O1 (some centres unmarked)
READOUT_RELATION: >
selectivity index (SI): 77
--
MOLECULE: CCCCCCCCCCCCCCCCCCOP(=O)(OCc1ccc(OC(=O)CCCC)cc1)OP(=O)(O)OP(=O)(O)OP(=O)(O)OC[C@@H]1C=C[C@H](n2cc(C)c(=O)[nH]c2=O)O1 (some centres unmarked)
READOUT_RELATION: =
selectivity index (SI): 643
--
MOLECULE: CCCCCCCCCCCCCCCCCCOP(=O)(OCCCC)OP(=O)(O)OP(=O)(O)OP(=O)(O)OC[C@@H]1C=C[C@H](n2cc(C)c(=O)[nH]c2=O)O1 (some centres unmarked)
READOUT_RELATION: =
selectivity index (SI): 522
--
MOLECULE: CCCCCCCCCCCCOP(=O)(OCCCCCCCCCCCC)OP(=O)(O)OP(=O)(O)OP(=O)(O)OC[C@@H]1C=C[C@H](n2cc(C)c(=O)[nH]c2=O)O1
READOUT_RELATION: =
selectivity index (SI): 405

====

Assay: Hydrolysis in citrate-stabilized human plasma
Format: in vitro ADME
Conditions: 37 °C, read-out: t1/2 in citrate-stabilized human plasma (converted)
Method: Finally, the supernatant was divided into aliquots and frozen at −80 °C. Two different samples, including 10 μL of water and 10 μL of 6.0 mM hydrolysis solution, were prepared in 2 mL Eppendorf vials. Next, 50 μL of human CEM cell extracts or 50 μL of human citrate plasma were added to the mixture, the reaction was started, and the mixture was incubated at 37 °C for different time periods. The reactions were stopped by the addition of 150 μL of MeOH. […]

MOLECULE: CCCCCCCCCCCCCCCCCCP(=O)(O)OP(=O)(O)OP(=O)(O)OP(=O)(O)OC[C@@H]1C=C[C@H](n2cc(C)c(=O)[nH]c2=O)O1
DISPLAY_UNIT: h
READOUT_RELATION: >
half-life at 0.86 mM: 22
--
MOLECULE: CCCCCCCCCC(=O)Oc1ccc(COP(=O)(OCc2ccc(OC(=O)CCCCCCCCC)cc2)OP(=O)(O)OP(=O)(O)OP(=O)(O)OC[C@@H]2C=C[C@H](n3cc(C)c(=O)[nH]c3=O)O2)cc1
DISPLAY_UNIT: h
READOUT_RELATION: =
half-life at 0.86 mM: 2.8
--
MOLECULE: CCCCCCCCCCCCCCCCCCP(=O)(OCCCC)OP(=O)(O)OP(=O)(O)OP(=O)(O)OC[C@@H]1C=C[C@H](n2cc(C)c(=O)[nH]c2=O)O1 (stereo partly shown)
DISPLAY_UNIT: h
READOUT_RELATION: >
half-life at 0.86 mM: 22
--
MOLECULE: CCCCCCCCCCCCCCCCCCOP(=O)(OCc1ccc(OC(=O)CCCC)cc1)OP(=O)(O)OP(=O)(O)OP(=O)(O)OC[C@@H]1C=C[C@H](n2cc(C)c(=O)[nH]c2=O)O1 (stereo partly shown)
DISPLAY_UNIT: h
READOUT_RELATION: =
half-life at 0.86 mM: 2.1
